meta.source: ChEMBL document CHEMBL4689842

Test system: HEK-293T
Experiment notes: Multiplex assay against HEK293T
Assay type: toxicity, cell-based
Condition description: human, 12 h, 1 µM, compound concentration 1 uM, replicate 1
Attribute: Population Membrane Permeable-Phenotype (%)
Entry rule: numbers only, all in %.

COc1cccc([C@@H](C)NCCCc2ccccc2Cl)c1.Cl [TECALCET HYDROCHLORIDE]
2
Cc1cc(C)cc(-c2cnc3cc(Cl)c(-c4cccc(O)c4)cc3c2OCCCN)c1
3
OC1(c2ccc(Cl)cc2)CCN(Cc2c[nH]c3ccccc23)CC1
4

As a next step, examine the compound that follows.
# input // lookup Population Membrane Permeable-Phenotype (%) for `CC(C)(O)CNc1ncc(-c2ccnc(Nc3ccnc(Cl)c3)n2)c(CC2CC2)n1`
# output 4
